These entries and their values trace back to ChEMBL document CHEMBL1131794.

biological target: Beta-lactamase (Staphylococcus aureus); assay: Inhibitory activity against serine Beta-lactamase derived from Staphylococcus aureus
pIC50: −log10 of the molar value.
VALUE TYPE: pIC50

INSERT INTO measurements (compound, target, value_observed) VALUES
  ('Cn1nnnc1SCC(=O)OC[C@@]1(C)[C@H](C(=O)O)N2C(=O)/C(=C/C(=O)O)C2S1(=O)=O (some centres undefined)', 'Beta-lactamase (Staphylococcus aureus)', 6.19),
  ('C[C@]1(COC(=O)Cc2ccc(O)c(O)c2)[C@H](C(=O)[O-])N2C(=O)/C(=C/c3ccccn3)C2S1(=O)=O.[Na+] (some centres undefined)', 'Beta-lactamase (Staphylococcus aureus)', 7.59),
  ('CC(=O)OC[C@@]1(C)[C@H](C(=O)O)N2C(=O)/C(=C/C(=O)O)C2S1(=O)=O (some centres undefined)', 'Beta-lactamase (Staphylococcus aureus)', 6.15),
  ('COC(=O)/C=C1/C(=O)N2C1S(=O)(=O)[C@@](C)(CCl)[C@@H]2C(=O)O (some centres undefined)', 'Beta-lactamase (Staphylococcus aureus)', 4.86);

* * *

molecular target: Beta-lactamase (Staphylococcus aureus); experiment: Inhibitory activity against serine Beta-lactamase derived from Staphylococcus aureus
pIC50: −log10 of the molar value.
pIC50 for assorted compounds
VALUE TYPE: pIC50

INSERT INTO assay_data (compound, value_observed) VALUES
  ('C[C@]1(COC=O)[C@H](C(=O)O)N2C(=O)/C(=C/C(=O)O)C2S1(=O)=O (some centres not stated)', 6.23),
  ('C[C@]1(CCl)[C@H](C(=O)O)N2C(=O)/C(=C/C(=O)O)C2S1(=O)=O (some centres not stated)', 3.28),
  ('C[C@]1(COC(=O)Cc2ccccc2)[C@H](C(=O)O)N2C(=O)/C(=C/C(=O)O)C2S1(=O)=O (some centres not stated)', 6.27),
  ('C[C@]1(/C=C/C#N)[C@H](C(=O)O)N2C(=O)/C(=C/C(=O)O)C2S1(=O)=O (some centres not stated)', 5.17),
  ('C[C@]1(COC(=O)Cc2ccccc2)[C@H](C(=O)O)N2C(=O)/C(=C/c3ccccn3)C2S1(=O)=O (some centres not stated)', 9.00),
  ('CC(=O)OC[C@@]1(C)[C@H](C(=O)O)N2C(=O)/C(=C/C(N)=O)C2S1(=O)=O (some centres not stated)', 5.07),
  ('COC(=O)/C=C1/C(=O)N2[C@@H](C(=O)O)[C@](C)(COC(C)=O)S(=O)(=O)[C@H]12', 5.02);

* * *

Listed here are compounds together with their documented pIC50.
biological target: Beta-lactamase (Staphylococcus aureus, UniProt P00807); assay: Inhibitory activity against serine Beta-lactamase derived from Staphylococcus aureus
Sequence (P00807 whole entry): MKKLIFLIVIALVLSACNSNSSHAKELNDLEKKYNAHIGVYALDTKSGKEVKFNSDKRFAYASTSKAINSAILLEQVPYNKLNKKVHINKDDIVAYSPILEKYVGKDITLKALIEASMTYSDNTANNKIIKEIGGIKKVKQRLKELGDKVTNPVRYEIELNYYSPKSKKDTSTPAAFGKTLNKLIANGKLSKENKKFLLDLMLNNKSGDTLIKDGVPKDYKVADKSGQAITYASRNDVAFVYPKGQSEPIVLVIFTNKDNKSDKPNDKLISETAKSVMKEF
pIC50: −log10 of the molar value.
VALUE TYPE: pIC50

INSERT INTO assay_data (compound, value_type, value_observed) VALUES
  ('COC(=O)/C=C1/C(=O)N2C1S(=O)(=O)[C@@](C)(COC(=O)CSc1nnnn1C)[C@@H]2C(=O)O (some centres undefined)', 'pIC50', 4.88),
  ('CC1(C)[C@H](C(=O)O)N2C(=O)/C(=C/C(=O)O)C2S1(=O)=O (some centres undefined)', 'pIC50', 5.35),
  ('CC(=O)OC[C@@]1(C)[C@H](C(=O)O)N2C(=O)/C(=C/c3ccccn3)C2S1(=O)=O (some centres undefined)', 'pIC50', 7.21),
  ('C[C@]1(COC(=O)Cc2ccc(O)c(O)c2)[C@H](C(=O)O)N2C(=O)/C(=C/C(=O)O)C2S1(=O)=O (some centres undefined)', 'pIC50', 6.43);

* * *

target: Beta-lactamase (Staphylococcus aureus, UniProt P00807); experiment: Inhibitory activity against serine beta-lactamase, PC1 (class A) derived from Staphylococcus aureus
pIC50: −log10 of the molar value.
Classification field: enter 1 for pIC50 values not below 5, 0 for values below it.

INSERT INTO results (compound, label_value) VALUES
  ('COC(=O)/C=C1/C(=O)N2C1S(=O)(=O)[C@@](C)(CCl)[C@@H]2C(=O)O (stereo partly drawn)', 0),
  ('CC1(C)[C@H](C(=O)O)N2C(=O)/C(=C/C(=O)O)C2S1(=O)=O (stereo partly drawn)', 0),
  ('C[C@]1(COC(=O)Cc2ccccc2)[C@H](C(=O)O)N2C(=O)/C(=C/c3ccccn3)C2S1(=O)=O (stereo partly drawn)', 1),
  ('C[C@]1(COC=O)[C@H](C(=O)O)N2C(=O)/C(=C/C(=O)O)C2S1(=O)=O (stereo partly drawn)', 0),
  ('COC(=O)/C=C1/C(=O)N2C1S(=O)(=O)[C@@](C)(COC(=O)CSc1nnnn1C)[C@@H]2C(=O)O (stereo partly drawn)', 0),
  ('C[C@]1(COC(=O)Cc2ccc(O)c(O)c2)[C@H](C(=O)[O-])N2C(=O)/C(=C/c3ccccn3)C2S1(=O)=O.[Na+] (stereo partly drawn)', 1),
  ('CC(=O)OC[C@@]1(C)[C@H](C(=O)O)N2C(=O)/C(=C/C(N)=O)C2S1(=O)=O (stereo partly drawn)', 1);

* * *

test system: Escherichia coli; assay: In vitro synergistic activity against Escherichia coli C600N + (OXA-10) {PSE-2}; format: functional
VALUE TYPE: MIC

INSERT INTO results (compound, value_observed) VALUES
  ('C[C@@H](O)[C@H]1C(=O)N2C(C(=O)O)=C(SCCNC=N)C[C@H]12 [IMIPENEM ANHYDROUS]', '0.12 µg/mL'),
  ('CC(C)(O/N=C(\C(=O)N[C@@H]1C(=O)N2C(C(=O)[O-])=C(C[n+]3ccccc3)CS[C@H]12)c1csc(N)n1)C(=O)O', '0.12 µg/mL'),
  ('CCN1CCN(C(=O)NC(C(=O)N[C@@H]2C(=O)N3[C@@H]2SC(C)(C)[C@@H]3C(=O)[O-])c2ccccc2)C(=O)C1=O.C[C@]1(COC(=O)Cc2ccc(O)c(O)c2)[C@H](C(=O)[O-])N2C(=O)/C(=C/c3ccccn3)C2S1(=O)=O.[Na+].[Na+] (some centres undefined)', '2 µg/mL'),
  ('CCN1CCN(C(=O)NC(C(=O)N[C@@H]2C(=O)N3[C@@H]2SC(C)(C)[C@@H]3C(=O)[O-])c2ccccc2)C(=O)C1=O.C[C@]1(Cn2ccnn2)C(C(=O)[O-])N2C(=O)C[C@H]2S1(=O)=O.[Na+].[Na+] (some centres undefined)', '2 µg/mL');

* * *

tested on: Staphylococcus aureus; assay: In vitro synergistic activity against Staphylococcus aureus (PC1); assay type: functional; note: test concentration or dose not given here
VALUE TYPE: MIC (µg/mL)

INSERT INTO measurements (molecule, target, value_type, value_relation_sign, value_observed) VALUES
  ('CCN1CCN(C(=O)N[C@@H](C(=O)N[C@@H]2C(=O)N3[C@@H]2SC(C)(C)[C@@H]3C(=O)O)c2ccccc2)C(=O)C1=O [PIPERACILLIN]', 'Staphylococcus aureus', 'MIC', '>', 64),
  ('C[C@@H](O)[C@H]1C(=O)N2C(C(=O)O)=C(SCCNC=N)C[C@H]12 [IMIPENEM ANHYDROUS]', 'Staphylococcus aureus', 'MIC', '<', 0.06),
  ('CC(C)(O/N=C(\C(=O)N[C@@H]1C(=O)N2C(C(=O)[O-])=C(C[n+]3ccccc3)CS[C@H]12)c1csc(N)n1)C(=O)O [CEFTAZIDIME]', 'Staphylococcus aureus', 'MIC', '=', 4),
  ('CCN1CCN(C(=O)NC(C(=O)N[C@@H]2C(=O)N3[C@@H]2SC(C)(C)[C@@H]3C(=O)[O-])c2ccccc2)C(=O)C1=O.C[C@]1(COC(=O)Cc2ccc(O)c(O)c2)[C@H](C(=O)[O-])N2C(=O)/C(=C/c3ccccn3)C2S1(=O)=O.[Na+].[Na+] (stereo partly specified)', 'Staphylococcus aureus', 'MIC', '=', 1),
  ('C[C@]1(COC(=O)Cc2ccc(O)c(O)c2)[C@H](C(=O)[O-])N2C(=O)/C(=C/c3ccccn3)C2S1(=O)=O.[Na+] (stereo partly specified)', 'Staphylococcus aureus', 'MIC', '>', 64),
  ('CCN1CCN(C(=O)NC(C(=O)N[C@@H]2C(=O)N3[C@@H]2SC(C)(C)[C@@H]3C(=O)[O-])c2ccccc2)C(=O)C1=O.C[C@]1(Cn2ccnn2)C(C(=O)[O-])N2C(=O)C[C@H]2S1(=O)=O.[Na+].[Na+] (stereo partly specified)', 'Staphylococcus aureus', 'MIC', '=', 1);

* * *

system: Enterobacter cloacae; assay: In vitro synergistic activity against Enterobacter cloacae (Imi-1+AmpC); type: functional
Overview of reported MIC across a group of compounds:
VALUE TYPE: MIC (µg/mL)

INSERT INTO measurements (compound, value_relation_sign, value_observed) VALUES
  ('C[C@]1(COC(=O)Cc2ccc(O)c(O)c2)[C@H](C(=O)[O-])N2C(=O)/C(=C/c3ccccn3)C2S1(=O)=O.[Na+] (stereo partly specified)', '>', 64),
  ('C[C@@H](O)[C@H]1C(=O)N2C(C(=O)O)=C(SCCNC=N)C[C@H]12 [IMIPENEM ANHYDROUS]', '>', 64),
  ('CC(C)(O/N=C(\C(=O)N[C@@H]1C(=O)N2C(C(=O)[O-])=C(C[n+]3ccccc3)CS[C@H]12)c1csc(N)n1)C(=O)O [CEFTAZIDIME]', '=', 0.5),
  ('CCN1CCN(C(=O)NC(C(=O)N[C@@H]2C(=O)N3[C@@H]2SC(C)(C)[C@@H]3C(=O)[O-])c2ccccc2)C(=O)C1=O.C[C@]1(Cn2ccnn2)C(C(=O)[O-])N2C(=O)C[C@H]2S1(=O)=O.[Na+].[Na+] (stereo partly specified)', '=', 16),
  ('CCN1CCN(C(=O)NC(C(=O)N[C@@H]2C(=O)N3[C@@H]2SC(C)(C)[C@@H]3C(=O)[O-])c2ccccc2)C(=O)C1=O.C[C@]1(COC(=O)Cc2ccc(O)c(O)c2)[C@H](C(=O)[O-])N2C(=O)/C(=C/c3ccccn3)C2S1(=O)=O.[Na+].[Na+] (stereo partly specified)', '=', 16),
  ('CCN1CCN(C(=O)N[C@@H](C(=O)N[C@@H]2C(=O)N3[C@@H]2SC(C)(C)[C@@H]3C(=O)O)c2ccccc2)C(=O)C1=O [PIPERACILLIN]', '>', 64);
